# assaySystem: T1, mouse VEGF164 (mouse, UniProt Q00731)
# T1 chain: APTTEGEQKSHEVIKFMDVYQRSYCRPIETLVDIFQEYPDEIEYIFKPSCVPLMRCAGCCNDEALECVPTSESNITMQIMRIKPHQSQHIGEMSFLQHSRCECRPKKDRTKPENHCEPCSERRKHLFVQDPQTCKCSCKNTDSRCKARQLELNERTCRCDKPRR
# testDescription: SPR, pH 5
attributeMeasured: pKd
Numbers only, as −log10 of the molar value.

Record excerpt, results attached:
**Q:** Give pKd for 578minmax FW1.4_DHP (961) (antibody, V domains shown) VH: EVQLVESGGGSVQPGGSLRLSCTASGFSLTDYYYMTWVRQAPGKGLEWVGFIDPDDDPYYATWAKGRFTISRDTSKNTVYLQMNSLRAEDTATYYCAGGDHNSGWGLDIWGQGTTVTVSS VL: EIVMTQSPSTLSASVGDRVIITCQASEIIHSWLAWYQQKPGKAPKLLIYLASTLASGVPSRFSGSGSGAEFTLTISSLQPDDFATYYCQNVYLASTNGANFGQGTKLTVLG
**A:** 9.22

**Q:** Give pKd for 578min_max T84N_V89L_DHP (1017) (antibody, V domains shown) VH: EVQLVESGGGSVQPGGSLRLSCTASGFSLTDYYYMTWVRQAPGKGLEWVGFIDPDDDPYYATWAKGRFTISRDNSKNTLYLQMNSLRAEDTATYYCAGGDHNSGWGLDIWGQGTTVTVSS VL: EIVMTQSPSTLSASVGDRVIITCQASEIIHSWLAWYQQKPGKAPKLLIYLASTLASGVPSRFSGSGSGAEFTLTISSLQPDDFATYYCQNVYLASTNGANFGQGTKLTVLG
**A:** 8.84

**Q:** Give pKd for 578minmax (903) (antibody, V domains shown) VH: EVQLVESGGGLVQPGGSLRLSCTASGFSLTDYYYMTWVRQAPGKGLEWVGFIDPDDDPYYATWAKGRFTISRDTSKNTVYLQMNSLRAEDTAVYYCAGGDHNSGWGLDIWGQGTLVTVSS VL: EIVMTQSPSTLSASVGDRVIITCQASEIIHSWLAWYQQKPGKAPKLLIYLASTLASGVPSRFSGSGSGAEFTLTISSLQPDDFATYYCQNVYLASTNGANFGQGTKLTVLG
**A:** 9.25

With those in mind, consider the next binder.
**Q:** Give pKd for 578min_max T84N_V89L (1008) (antibody, V domains shown) VH: EVQLVESGGGLVQPGGSLRLSCTASGFSLTDYYYMTWVRQAPGKGLEWVGFIDPDDDPYYATWAKGRFTISRDNSKNTLYLQMNSLRAEDTAVYYCAGGDHNSGWGLDIWGQGTLVTVSS VL: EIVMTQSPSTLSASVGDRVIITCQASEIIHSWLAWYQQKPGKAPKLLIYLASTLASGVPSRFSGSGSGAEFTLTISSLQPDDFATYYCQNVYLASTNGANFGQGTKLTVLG
**A:** 8.82

Attribution: patent US10590193
